Value source: patent US20080242688A1

experimental_protocol: Single dose PK/TK, rhesus monkey
Format: in vivo
measurement_conditions: both sexes, plasma, im; rhesus monkey 2F+2M, A7AGBU1006, intramuscular 1.7 mg/kg (8 μmol/kg); read-out: T½ (converted)
measurement_kind: half-life (min)
Use min as the unit, but write only the number.

So what's the measured half-life for this one? c1cnc2c(c1)C[C@@]1(CN3CCC1CC3)O2
58.2

* * *

experimental_protocol: Single dose PK/TK, rabbit
measurement_conditions: female, New Zealand White, in vivo, sc; rabbit 3F, DMB10, single subcutaneous 2.16 mg/kg (10 μmol/kg)
measurement_kind: Tmax

Report Tmax for c1cnc2c(c1)C[C@@]1(CN3CCC1CC3)O2 please.
30 to 67.2 min

* * *

experimental_protocol: Cardiovascular/ECG telemetry in dogs
Assay type: in vivo
measurement_conditions: in vivo, po; dog, low dose group, day 4; read-out: total Cmax
measurement_kind: Cmax (nM)
Reply with just the number (in nM).

Query (compound): c1cnc2c(c1)C[C@@]1(CN3CCC1CC3)O2 [AZD0328] ; field requested: Cmax
1500

* * *

experimental_protocol: Single dose PK/TK, rat
Format: in vivo
measurement_conditions: both sexes, in vivo; rat 1M+1F, DMR4, single oral 2.16 mg/kg (10 μmol/kg)
measurement_kind: Tmax

Consider the compound shown here: c1cnc2c(c1)C[C@@]1(CN3CCC1CC3)O2 What is its recorded Tmax?
30 to 60 min

* * *

experimental_protocol: Single dose PK/TK, dog
Type: in vivo
measurement_conditions: both sexes, dog, in vivo, po, 1.08 mg/kg, dog 2F+2M, 0190DD, oral 1.08 mg/kg (5 μmol/kg) split in two 6 h apart, capsules, fed
measurement_kind: Tmax

For the compound c1cnc2c(c1)C[C@@]1(CN3CCC1CC3)O2 [AZD0328] , what Tmax is on record?
0.5 to 6 h

* * *

experimental_protocol: Single dose PK/TK, rat
Type: in vivo
measurement_conditions: male, in vivo; rat 4M, 20030191PCR, single oral 32.4 mg/kg (150 μmol/kg)
measurement_kind: Tmax (h)
Use h as the unit, but write only the number.

// returns reported Tmax for input c1cnc2c(c1)C[C@@]1(CN3CCC1CC3)O2
1

* * *

experimental_protocol: Single dose PK/TK, rat
Type: in vivo
measurement_conditions: male, in vivo; rat 4M, 20030191PCR, single oral 1.08 mg/kg (5 μmol/kg)
measurement_kind: Tmax (h)
Write the value in h as a bare number.

What does the record list as Tmax for c1cnc2c(c1)C[C@@]1(CN3CCC1CC3)O2 [AZD0328] ?
1

* * *

experimental_protocol: Multiple dose PK/TK, rabbit
Type: in vivo
measurement_conditions: female, New Zealand White, in vivo, sc; rabbit 2F, DMB15, subcutaneous 1.15 mg/kg (3 μmol/kg), day 18
measurement_kind: Tmax

Recorded Tmax for c1cnc2c(c1)C[C@@]1(CN3CCC1CC3)O2 , please?
18 to 60 min

* * *

experimental_protocol: Multiple dose PK/TK, rat
Type: in vivo
measurement_conditions: male, rat, in vivo, po, 15.1 mg/kg, rat 4M, 0612AR, 15.1 mg/kg (70 μmol/kg), day 30
measurement_kind: Tmax at 30 day (h)
Kindly provide the numeric value in h only, without the unit symbol.

Looking for the measured Tmax at 30 day of c1cnc2c(c1)C[C@@]1(CN3CCC1CC3)O2 , can you help?
1

* * *

experimental_protocol: Single oral dose pharmacokinetics in healthy human volunteers
Assay type: in vivo
measurement_conditions: human, plasma; single oral dose 2 mg, geometric mean
measurement_kind: AUC (µM·h)
Write the number in µM·h without appending the unit.

# lookup: AUC of c1cnc2c(c1)C[C@@]1(CN3CCC1CC3)O2
0.421
